For each record, write down the corresponding CC50.
- protocolNotes: in vitro
- assaySetup: human

The examples below pair each entry with its known result.
>  <compound>
CC(C)(CO)C(=O)SCCOP1(=O)OC[C@H]2[C@@H](O)[C@H](n3ccc(=O)[nH]c3=O)O[C@@H]2CO1 (single isomer, unassigned) [Compound 109 (Diastereomer 1)]

>  <readoutType>
CC50

>  <val>
> 50 µM

$$$$
>  <compound>
CC(C)OC(=O)[C@@H](C)NP1(=O)OC[C@H]2[C@@H](O)[C@H](n3ccc(=O)[nH]c3=O)O[C@@H]2CO1 (single isomer, unassigned) [Compound 110a (Diastereomer 1)]

>  <readoutType>
CC50

>  <val>
> 50 µM

$$$$

Given the entry Nc1ncnc2c1ncn2[C@@H]1O[C@H](CO)[C@@H](CO)[C@H]1O , report its measured CC50. > 50 µM
